Read-out: CD40, CD40 (gene 958)
experiment: BSK_LPS_CD40: BioMAP Diversity Plus: LPS Assay for CD40 Biomarker Activity (AID 2283076)
condition parameters: primary human HUVEC with PBMC; actives raise or lower the signal
Active and inactive are the calls of the source. How the source made its calls: active means hit-call score of the fitted dose curve at least 0.9, where 1 is the maximum; inactive means score below 0.9.
A correct response names exactly one class from Y (active), N (inactive)

Could you check what this test reported for Oc1cccc(O)c1 ? N

Which outcome did this test record for the molecule CCCCCCCCCCCCCCCS(=O)(=O)Oc1ccccc1 ? N

Hello, I am checking results. What call was entered for CC#C[C@]1(O)CC[C@H]2[C@@H]3CCC4=CC(=O)CCC4=C3[C@@H](c3ccc(N(C)C)cc3)C[C@@]21C ? Y

Recorded call for Cc1oc(-c2ccccc2)nc1CCOc1ccc(C[C@H](Nc2ccccc2C(=O)c2ccccc2)C(=O)O)cc1 ? Y

Outcome logged for CCCOc1sc(C(=O)N2CCC(c3cc(CN)ccc3F)CC2)c(C)c1Br in this assay: Y

Test call, this molecule: c1ccc2c(c1)Cc1ccccc1-2 N

Check the results log: what was the call for CCN(CC)CCNc1ccc(CNC=O)c2sc3ccc(OC)cc3c(=O)c12 ? Y

What outcome does the record of this test show for CC(C)(C)c1ccc(O)c(C(C)(C)C)c1 ? Y

What did the test return for C=C(C)C(=O)OCCC(F)(F)C(F)(F)C(F)(F)C(F)(F)C(F)(F)C(F)(F)F ? N

Returns: the outcome recorded for COc1ccc([N+](=O)[O-])cc1N in this assay. N

Which outcome did this test record for the molecule CC(C)(C)CC(C)(C)c1ccc(O)c(-n2nc3ccccc3n2)c1 ? N

This collection of values is drawn from PubChem BioAssay (EPA / NIEHS).
